// provenance: PubChem BioAssay (NCI)

Test: NCI Yeast Anticancer Drug Screen. Data for the mec2-1 strain (AID 157)
Conditions: S. cerevisiae mec2-1 strain, at 50.0 µM, stronger effect = higher value
About 79,000 compounds went through this panel and 15% of them were active in at least one assay; those are over-represented in the sample as a whole.
readout.kind: growth inhibition (%)
Write it as a number; the unit % goes unstated.

Consider the molecule c1csc(-c2nccc3ccccc23)c1 and give its measured growth inhibition. 2.3

Then this molecule: Nc1cc(N)n(C2=NCCN2)n1 -27.5

Please do the same for CCOC1CN(C(=O)ON)N1C(=O)ON (stereo not given) as well. -12.6

Now this one: O=C(N/N=C\c1cc(=O)[nH]c(=O)[nH]1)c1ccccc1 -2.95

Next molecule: Cc1ccc(N=Nc2ccc(O)c(CN(C)C)c2)cc1C -29.5

Next: Nc1nc(N)c(-c2ccc(Cl)cc2)c(CNc2cccc([N+](=O)[O-])c2)n1 91.3

Next: CC(=O)N1CC(=O)N2C(=O)/C(=C/c3ccc(Cl)cc3)N=C12 1.35

Would you mind doing O=C1C(=O)N(C23CC4CC(CC(C4)C2)C3)C(=S)N1c1ccccc1 as well? -20.6

Same for Cc1c(Br)cc(Br)c(O)c1Br 26.9

Also Cc1cc(N)ccc1C(=O)O , if possible. -7.65

Item: S=C(Nc1c2c(nc3ccccc13)CCCC2)Nc1c2c(nc3ccccc13)CCCC2 9.55

Here is the next molecule: FC(F)(F)c1ccc2nc[nH]c2c1 -10.2

Same question, CCOC(=O)C/C(C(=O)O)=C(\C)c1ccc2ccccc2c1 this time 18.1

Note, next up: Nc1c2cc3c(cc2c[n+]2ccc4ccccc4c12)OCO3 44

Entry to check: O=[N+]([O-])c1cc(F)cc(F)c1Nc1ccccc1 -11.4

Follow-up item: COc1ccc(/C=C/C(=O)c2sc(NC(=S)NC(=O)c3ccccc3F)nc2C)cc1OC 8.5

# iterate: CC1CCCCN1S(=O)(=O)N(C)C (stereo not given) 27.1

Again, but for COc1ccc(C2C(=O)c3ccc(OC)cc3OC2c2cccnc2)cc1 (stereo not given) -8.8

# iterate: Cn1nc(-c2ccccc2)c([N+](=O)[O-])c1NCc1ccccc1 -1.95

And CC(C)(C)c1ccc(C(O)(c2ccc(C(C)(C)C)cc2)c2ccc(C(C)(C)C)cc2)cc1 ? -3.85

Similarly, CSc1ccc(NC(=O)Nc2cccc(C)c2C)cc1 ? 27.1

Would you mind doing CC1(C)OC2CC(=O)OCC23C1CC(=O)C1(C)C3CCC2(C)C(c3ccoc3)OC(=O)C3OC321 (stereo not given) as well? 1.4

Also check CC(C)CC(O)C(C)C (stereo not given) -15.8

Try this molecule too: NC(N)=NNC(=O)C(=O)O -7.9

Same question, CC(N=Nc1ccccc1)/N=N/c1nn[nH]n1 (stereo not given) this time -12.2
